Tested on: K4 kissing-loop RNA reporter;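 further: bound reporter read as fluorescence of individual clusters on recovered sequencing chips by microscopy, with normalized cluster intensities fitted with a binding model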
Experiment: apparent KD of K4 kissing-loop reporter; higher = weaker reporter binding
Conditions: Eterna round: R107; input ligand: arginine 13.2 mM
Param threshold (200 nM) applies to apparent KD of K4 kissing-loop reporter; output t when value >= threshold, f when value < threshold.

Examples with answers:
{"columns": ["Record sequence", "Assayed system", "Assigned class"],
 "data": [
  ["AGUGACGAGUGAUGUUCGUGAACACUGGAUACCAGCAGUCUUAUCUGCCCUUGGCAGCCAACGGGAACCGAAUGUUAAGACCUGU [theeternabot_exclusion_KL_Theo_A_4]", "K4 kissing-loop RNA reporter", "f"],
  ["ACCUACGAUCACAAUAGUGAUUGUAGGAACUAGGAUAUGCUGAAAAGCAGAAGGAGUGAUGUUCCGUCAUGAAUAACAUGACAAA [FmnAX 5 #OpenEnded #K4Late #CoaxialStacking]", "K4 kissing-loop RNA reporter", "t"],
  ["AGACUACCACACUGUCAAUAGACAGUGAACUCGGAUAUGCUGAUAAGCAGAAGGAGUGAUGUUCCUAGGUAGUCAAUAAAAUAAU [FmnAX 13 C32]", "K4 kissing-loop RNA reporter", "t"],
  ["AAGCGUAAAAUGGCGGACAUACUGCUCCCACGAGGACCGGUACGGCCGCCACUCGAAUGCGGCAGUGAUGUUGCCGCCUUAGCGU [KL-XTryp-A19]", "K4 kissing-loop RNA reporter", "f"]
]}

INPUT: Is apparent KD of K4 kissing-loop reporter for UUUUUAUUCAGUGAUGUUGAAUUUAUAUCAGAGGAUAUGCAUAAAAGCAGAAGGCUGAAAUACUAUACUUUAAUAAAUUAUAUUU [JR_SSFMNA_Sub017] at or above 200 nM?
OUTPUT: t

INPUT: Is apparent KD of K4 kissing-loop reporter for UGUCAUUGGUCGGCCGCCACUAGGACCGGGUAUAACCUAGUGAUGUUAGUGAGUACGGCCGCCACUAGGACCGGGACCGAUGACU [KL-SSTryp-B120 #DoubleAptamer] at or above 200 nM?
OUTPUT: t

----------
Test system: MS2 coat protein
Experiment: apparent KD of MS2 coat protein; designed switch direction (-1 OFF switch, 1 ON switch): 1; higher = weaker reporter binding
Conditions: input ligand: microRNA oligo, concentration not stated
Observable: apparent KD of MS2 coat protein (nM)
One number for each entry, in nM.

Examples from the recorded data:
{"columns": ["Record sequence", "apparent KD of MS2 coat protein [nM]"],
 "data": [
  ["UUCUGACAUGAGGAUCACCCAUGUGAGACAUAUGGAGAAUCUCAGGAUAUCCUGAGGAUCACCCAGGAGAAGGGAGAUCCGACC (Eterna round: R96, puzzle: Same State NG 3)", 43.7],
  ["GCCAACUCAUGAGGAUAUGGCACCUUAAUGGUGCCAGAAGGCAUGUCUAUUGACAUGAGGAUCACCCAUGUAUUAUUGUUGGCA [Fiskers NG1ss - 25] (Eterna round: R96, puzzle: Same State NG 1)", 241],
  ["UUGAAGAAUUAAGGAUAUUGAUUACAUAUGUAUAACAUGAGGAUCACCCAUGUGGGUUGCGGUAUCGAGAAGGUAAAUUACUAG [Mat - same State NG 2 - JL mod - D75] (Eterna round: R96, puzzle: Same State NG 2)", 98.5],
  ["GGAAUAUUUACAGGAUAUGAUUUGUAAAUUCGAUCAGAAGGGUAGAUGUCUUACACGAUUUGUUACAUGAGGAUCACCCAUGUU [SameState NG1 #10] (Eterna round: R96, puzzle: Same State NG 1)", 81.9],
  ["AUUAUACAUGAGGAUCACCCAUGUAAUUAAUUAAUUAAGAUCAAGGAUAUCAGCUCGAAUAGAGCUGAGAAGGUGAUCACAUGU [SSNG3/20-B1] (Eterna round: R96, puzzle: Same State NG 3)", 218],
  ["UGGUACAUGGGAGGAUAUGGGCAAGGGACAUGAGGAUCACCCAUGUAUUAAAAGCCGAAAGGCAUCUAGAAGGCCCAUGUACCU [JL SSNG1 3.87] (Eterna round: R96, puzzle: Same State NG 2)", 42.7],
  ["UGGCUCAGAGCAGGAUAUACGUGGUCACAUGAGGAUCACCCAUGUCUCGAGCUUCGGCUCGAGGCGUAGAAGGGCUCUGAGCCU [SSNG2/6-B3] (Eterna round: R96, puzzle: Same State NG 2)", 131],
  ["GUUACAUGAGGAUCACCCAUGUAUGUGUGGGAGUAAGUGUCUUAGGAUAUCUAGUAAUUAAUUUAAGAGAAGGAAGAUUGUUGU [JMF's solution 54] (Eterna round: R96, puzzle: Same State NG 3)", 93.5]
]}

Shift focus to the following entry.
INPUT: apparent KD of MS2 coat protein lookup needed for GCUCGAUGAACGUCCUACAUGAGGAUCACCCAUGUUCGUGGGCAGGAUAUUUACAUGCAGAGUGUAGAGAAGGGCCCAUCGAGC [SameState NG3 #64] (Eterna round: R96, puzzle: Same State NG 3) , thanks.
OUTPUT: 74.6
